System: murine colon tumour line C26A
measurement notes: Cytotoxicity, continuous drug exposure 72 hours, SRB assay
Format: cell-based
condition info: 72 hours continuous exposure, read-out: IC50 cytotoxicity C26-A
From the text: The cytoxicity activity of Gemcitabine-N^4-elaidic amide and Gemcitabine-5′-elaidic ester were investigated in 2 pairs of rodent and human tumour cell lines, each consisting of a parent line and a subline either resistant or cross-resistant to Gemcitabine. […]
property measured: IC50 (nM)
Give bare numbers, in nM.

### Prompt Identify IC50 associated with the molecule CCCCCCCC/C=C/CCCCCCCC(=O)OC[C@H]1O[C@@H](n2ccc(N)nc2=O)C(F)(F)[C@@H]1O
### Response 0.3

###

Tested on: human ovarian tumour line A2780
measurement notes: Cytotoxicity, continuous drug exposure 72 hours, SRB assay
Assay type: cell-based
condition info: 72 hours continuous exposure
Assign IC50 to each entry below.

INSERT INTO measurements (compound, property_measured, result) VALUES
  ('CCCCCCCC/C=C/CCCCCCCC(=O)OC[C@H]1O[C@@H](n2ccc(N)nc2=O)C(F)(F)[C@@H]1O', 'IC50', '< 0.1 nM');

Now examine the next entry.
### Prompt Give a short answer stating reported IC50 for CCCCCCCC/C=C/CCCCCCCC(=O)Nc1ccn(C2OC(CO)C(O)C2(F)F)c(=O)n1 (centres unmarked) [Gemcitabine-N^4-elaidic amide, Elaidic Acid (N^4)-Gemcitabine Amide] .
### Response < 0.1 nM

###

System: subline AG6000 (resistant to Gemcitabine, deficiency of deoxycytidine kinase)
measurement notes: Cytotoxicity, continuous drug exposure 72 hours, SRB assay
Type: cell-based, human
condition info: 72 hours continuous exposure
Provide the recorded IC50 for the entries that follow.
I'd appreciate it if you included the unit after the number.

# batch size: 2; output IC50 per entry
1. CCCCCCCC/C=C/CCCCCCCC(=O)Nc1ccn(C2OC(CO)C(O)C2(F)F)c(=O)n1 (centres unmarked) [Gemcitabine-N^4-elaidic amide, Elaidic Acid (N^4)-Gemcitabine Amide]
2. CCCCCCCC/C=C/CCCCCCCC(=O)OC[C@H]1O[C@@H](n2ccc(N)nc2=O)C(F)(F)[C@@H]1O [Gemcitabine-5′-elaidic ester, Elaidic Acid (5′)-Gemcitabine Ester]

### Response
["35 µM", "100 µM"]
